assayed_system: MerTK (Homo sapiens)
Construct: Seed HUVECs (10K cells/well) in EBM-2 complete media
Sequence (Q12866 21-999): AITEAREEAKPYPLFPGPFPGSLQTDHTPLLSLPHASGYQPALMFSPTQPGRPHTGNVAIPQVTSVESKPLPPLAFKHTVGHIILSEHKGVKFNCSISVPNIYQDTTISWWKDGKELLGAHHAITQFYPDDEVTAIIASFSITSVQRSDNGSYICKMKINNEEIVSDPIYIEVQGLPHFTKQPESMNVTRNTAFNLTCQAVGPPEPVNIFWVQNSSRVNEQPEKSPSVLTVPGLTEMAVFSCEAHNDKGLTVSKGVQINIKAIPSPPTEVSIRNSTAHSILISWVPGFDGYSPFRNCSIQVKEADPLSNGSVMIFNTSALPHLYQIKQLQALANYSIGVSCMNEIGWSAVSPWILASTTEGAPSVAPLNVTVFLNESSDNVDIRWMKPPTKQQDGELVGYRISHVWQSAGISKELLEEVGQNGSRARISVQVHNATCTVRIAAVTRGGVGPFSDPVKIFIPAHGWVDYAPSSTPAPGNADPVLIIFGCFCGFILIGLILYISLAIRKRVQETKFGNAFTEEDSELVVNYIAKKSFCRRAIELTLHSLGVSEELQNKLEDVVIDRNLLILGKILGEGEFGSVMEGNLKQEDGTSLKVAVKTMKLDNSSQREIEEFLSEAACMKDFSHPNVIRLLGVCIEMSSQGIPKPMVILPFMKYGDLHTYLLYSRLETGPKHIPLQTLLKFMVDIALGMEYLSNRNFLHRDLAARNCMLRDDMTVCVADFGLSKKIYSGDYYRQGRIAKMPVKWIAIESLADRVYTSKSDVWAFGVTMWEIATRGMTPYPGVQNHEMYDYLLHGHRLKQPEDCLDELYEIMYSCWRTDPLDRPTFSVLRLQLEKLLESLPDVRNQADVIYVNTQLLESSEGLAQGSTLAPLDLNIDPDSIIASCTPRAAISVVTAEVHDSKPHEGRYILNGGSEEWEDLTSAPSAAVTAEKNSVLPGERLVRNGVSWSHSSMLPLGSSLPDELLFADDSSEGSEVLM
experimental_details: PAKT HTRF-HUVEC assay (pAkt Ser473 HTRF after anti-human MerTK-XL stimulation)
stated_conditions: HUVEC cells, 1 hour compound, stimulated with anti-human MerTK-XL 1 ug/mL for 10 minutes, read-out: inhibition of MerTK
assay_endpoint: EC50 (nM)

Answered examples (2):
- compound: "CCC1(CNc2ncc3c4ccc(N5CCN(C)CC5)cc4c(=O)n([C@H]4CC[C@H](O)CC4)c3n2)CCC1"
  EC50 [nM]: 3910
- compound: "CC(C)(C)OC(=O)C1CCN(Cc2ccc3c(c2)c(=O)n([C@H]2CC[C@H](O)CC2)c2nc(NCC4CC4)ncc32)CC1"
  EC50 [nM]: 72.5

I: CCCCNc1ncc2c3ccc(N4CCN5CCC4CC5)cc3c(=O)n(C3CCC(=O)CC3)c2n1
II: CCC(F)(F)CNc1ncc2c3ccccc3c(=O)n([C@H]3CC[C@H](O)CC3)c2n1
Request: Which one would you say has the larger EC50 value: I , or II ? Answer by quoting the chosen item's label.
Response: II
(II: 15800 nM, I: 216 nM)
